Protocol: soluble on expression in E. coli; label from the status in PepcDB or PDB records
Experimental readout: soluble on expression in E. coli

- AHHHHHHGSEEKIILFVCVKNSARSQMAEAFFNYYNDDPRFKAMSAGTEPADDIDPLAKKVMEEIGISLEGQKPKLYTPEMADKAYIVITMGCLDKCPYAPPEKTWDWGLEDPYGKPIEKYREVRDEIKRRVLKLIEDLKAGKSREEIIGRKSLFAI: soluble
- MGSDKIHHHHHHMTYARKPVADAGIGVGIADDPASLSVLHKPGCAAAIWRRHIPSQAKTWLEGLDPSQLPTGRQMVRPDGVRHAVRDFCKRADTPLGDDLDWLQNDMSMLAEMFAQVMSARVLRLRLDAISTNACSRFHIDAVTARLVCTYRGSGTQYGISTDGRAPRRVFQVATGAPILLRGTLWPEDPPSGVLHRSPPIAGTGETRLVMVLDPIFDPDNGP: not soluble
- MSLAYQALYRVFRPQSFQDVVGQEHVTKTLKNAIVQNKTSHAYLFSGPRGTGKTSAAKIFAKAINCEHGHDGEPCNECEICKGTTDGSIPDVLEIDAASNNGVEEIRDIREKVKYAPTVAKYKVYIIDEVHMLSTGAFNALLKTLEEPPKHVIFILATTEPHKLPLTIISRVQRFDFKRITTQDIIGRLKFILEEEKIPYDEKALMIVARAAEGGMRDALSLLDQVISYGSEEVTVEDALEITGSVAQNLLTKLVSAAFDGDAAEAISTLTALLAEGKDPVRLVEDLLVFFRDVLLYQKAPNLEETLERALIDDDFVALAKRADSLKVYEFVKILNTAQQQMRFSNHPGIYVEVALIQLTQAGEGHHHHHH: soluble
- DRSVIYPSEYFFLKGGNAFWRFGDSMEAAFQTLPPYTATADKHLILQTSYRASRLLVNFLPFVFLKTNDEALHFKARWDMVSRKPYLEMGYSES: not soluble
- SEAKTLGTVTPRKPVLSVSARKIKDNAADWHNLILKWETLNDAGFTTANNIANLKISLLNKDKIELDSSSPASKENEEKVCLEYNEELEKLCEELQATLDGLTKIQVKMEKLSSTTKGICELENYHYGEESKRPPLFHTWPTTHFYEVSHKLLEMYRKELLLKRTVAKELAHTGDPDLTLSYLSMWLHQPYVESDSRLHLESMLLETGHRAL: soluble
- PDQCKPPQVTCRSATCAQVNWEVPLSNGTDVTEYRLEWGGVEGSMQICYCGPGLSYEIKGLSPATTYYCRVQALSVVGAGPFSEVVACVTPPS: soluble

Attention now shifts to the item below.
Prompt: Provide one value: measured soluble on expression in E. coli of `MAHHHHHHSLNVLKDKLSGKNVKIVLPEGEDERVLTAATQLQATDYVTPIVLGDETKVQSLAQKLDLDISNIELINPATSELKAELVQSFVERRKGKATEEQAQELLNNVNYFGTMLVYAGKADGLVSGAAHSTGDTVRPALQIIKTKPGVSRTSGIFFMIKGDEQYIFGDCAINPELDSQGLAEIAVESAKSALSFGMDPKVAMLSFSTKGSAKSDDVTKVQEAVKLAQQKAEEEKLEAIIDGEFQFDAAIVPGVAEKKAPGAKLQGDANVFVFPSLEAGNIGYKIAQRLGGYDAVGPVLQGLNSPVNDLSRGCSIEDVYNLSIITAAQALQEG`
Response: soluble
